measured.on: CDK9 (Homo sapiens, UniProt P50750)
Construct: endogenous in cells; host or cells: MDA-MB-231
Sequence (P50750 whole entry): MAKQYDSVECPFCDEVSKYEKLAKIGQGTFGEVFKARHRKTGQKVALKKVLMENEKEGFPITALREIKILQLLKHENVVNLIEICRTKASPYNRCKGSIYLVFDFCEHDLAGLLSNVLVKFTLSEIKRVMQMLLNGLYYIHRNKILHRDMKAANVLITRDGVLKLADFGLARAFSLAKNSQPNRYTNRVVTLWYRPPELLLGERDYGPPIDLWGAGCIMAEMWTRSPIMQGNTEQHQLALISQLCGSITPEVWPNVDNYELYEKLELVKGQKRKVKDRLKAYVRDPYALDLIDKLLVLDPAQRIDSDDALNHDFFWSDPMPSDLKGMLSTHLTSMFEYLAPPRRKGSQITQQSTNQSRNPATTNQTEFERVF
method: CDK protein degradation activity (Western blotting), CDK9
Type: cell-based
experimental.parameters: MDA-MB-231 cells, 10 μM, 16 hours, Western blot
reported.metric: Enzyme degradation CDK9 (% remaining) @ 10 μM (%)

1) Cc1cccc(C(=O)N[C@H]2C[C@@H](n3cnc4c(Nc5ccc(N6CCN(C7CC8(CCN(C(=O)C9CN(c%10ccc%11c(c%10)C(=O)N(C%10CCC(=O)NC%10=O)C%11=O)C9)CC8)C7)CC6)cc5)ncnc43)C2)n1 (some centres unmarked)    0
2) O=C1CC[C@H](N2C(=O)c3cccc(OCC(=O)N4CCN(CC5CCN(c6ccc(Nc7ncnc8c7ncn8C7CC(NC(=O)Cc8ccccc8)C7)cc6)CC5)CC4)c3C2=O)C(=O)N1 (some centres unmarked)    0
3) O=C(CNc1ccc2c(c1)C(=O)N(C1CCC(=O)NC1=O)C2=O)NC[C@H]1CC[C@H](CN2CCN(c3ccc(Nc4ncnc5c4ncn5[C@H]4C[C@@H](NC(=O)Cc5ccccc5)C4)cc3)CC2)CC1 (some centres unmarked)    0

====

measured.on: CDK9 (Homo sapiens)
Construct: endogenous in cells; host or cells: MDA-MB-231
method: CDK protein degradation activity (Western blotting), CDK9
Assay type: cell-based
experimental.parameters: MDA-MB-231 cells, 10 μM, 16 hours, Western blot
reported.metric: Enzyme degradation CDK9 (% remaining) @ 10 μM

1) O=C1CC[C@H](N2C(=O)c3cccc(OCC(=O)N4CCC(CN5CCN(c6ccc(Nc7ncnc8c7ncn8[C@H]7C[C@@H](NC(=O)c8c(Cl)cccc8Cl)C7)cc6)CC5)CC4)c3C2=O)C(=O)N1    0/0/0%
2) COc1ccc(C(=O)N2CC(CN3CCC4(CC3)CC(N3CCN(c5ccc(Nc6ncnc7c6ncn7[C@H]6C[C@@H](NC(=O)Cc7ccccc7)C6)cc5)CC3)C4)C2)cc1N1CCC(=O)NC1=O    10%
3) O=C1CC[C@H](N2C(=O)c3ccc(N4CC(C(=O)N5CCC(CN6CCN(c7ccc(Nc8ncnc9c8ncn9C8CC(NC(=O)c9cccc(F)n9)C8)cc7)CC6)CC5)C4)cc3C2=O)C(=O)N1 (stereo partly shown)    0/0/0%
4) COc1ccc(C(=O)N2CCC(CCCN3CCN(c4ccc(Nc5ncnc6c5ncn6[C@H]5C[C@@H](NC(=O)Cc6ccccc6)C5)cc4)CC3)CC2)cc1N1CCC(=O)NC1=O    50%
5) O=C1CC[C@H](N2C(=O)c3cccc(N4CCC5(CC4)CC(N4CCC(c6ccc(Nc7ncnc8c7ncn8C7CC(NC(=O)Cc8ccccc8)C7)cc6)CC4)C5)c3C2=O)C(=O)N1 (stereo partly shown)    0%
6) Cc1cccc(C(=O)N[C@H]2C[C@@H](n3cnc4c(NCc5cccc(OCCCN6CCN(C(=O)COc7cccc8c7C(=O)N([C@H]7CCC(=O)NC7=O)C8=O)CC6)c5)ncnc43)C2)n1    30%
7) O=C1CC[C@H](N2C(=O)c3cccc(N4CC(CN5CCC6(CC5)CC(N5CCN(c7ccc(Nc8ncnc9c8ncn9[C@H]8C[C@@H](NC(=O)Cc9ccccc9)C8)cc7)CC5)C6)C4)c3C2=O)C(=O)N1    10%
8) Cc1cccc(C(=O)N[C@H]2C[C@@H](n3cnc4c(NCc5cccc(OCC6CCN(C(=O)CNc7ccc8c(c7)C(=O)N(C7CCC(=O)NC7=O)C8=O)CC6)c5)ncnc43)C2)n1 (stereo partly shown)    0%
9) O=C1CC[C@H](N2C(=O)c3ccc(NCC(=O)N4CCC(CCCN5CCN(c6ccc(Nc7ncnc8c7ncn8[C@H]7C[C@@H](NC(=O)Cc8ccccc8)C7)cc6)CC5)CC4)cc3C2=O)C(=O)N1 (racemic)    0/0/0%
10) Cc1cccc(C(=O)NC2CC(n3cnc4c(Nc5ccc(N6CCN(CC7CCN(C(=O)COc8ccc([C@@H]9CCC(=O)NC9=O)cc8)CC7)CC6)cc5)ncnc43)C2)n1 (stereo partly shown)    0/0/0%
